All values here come from patent US7560482B2.

Target: plasmepsin II from Plasmodium falciparum (Plm II) (Plasmodium falciparum)
Construct: made in house; host or cells: Escherichia coli
Sequence (P46925 125-453): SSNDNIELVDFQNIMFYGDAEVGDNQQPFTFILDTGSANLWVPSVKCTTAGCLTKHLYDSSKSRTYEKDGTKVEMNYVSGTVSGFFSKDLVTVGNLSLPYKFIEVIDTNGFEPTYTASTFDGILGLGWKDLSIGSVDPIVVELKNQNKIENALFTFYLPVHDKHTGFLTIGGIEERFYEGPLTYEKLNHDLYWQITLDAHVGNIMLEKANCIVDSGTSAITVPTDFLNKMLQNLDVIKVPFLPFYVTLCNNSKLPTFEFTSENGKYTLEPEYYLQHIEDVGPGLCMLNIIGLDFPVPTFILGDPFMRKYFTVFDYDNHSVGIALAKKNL
Assay: Plasmepsin II inhibition assay, hydrolysis of chromogenic substrate
Assay type: biochemical
Conditions: Plasmepsin II versus Cathepsin D, fold
Experimental: FIG. 7A-C. Inhibition of Plasmepsin II from Plasmodium falciparum by KNI-10033, KNI-10030 and KNI-10006 at 20° C. in 10 mM sodium citrate, 100 mM NaCl, 2% DMSO, pH 4.0. The inhibition constants are 3 nM, 11 nM and 0.5 rLM respectively. […]
recorded_metric: discrimination factor / Cathepsin D selectivity

Look over these answered cases.
INSERT INTO assay_data (molecule, result_value) VALUES
  ('Cc1cccc(C)c1OCC(=O)N[C@@H](Cc1ccccc1)[C@H](O)C(=O)N1CSC(C)(C)[C@H]1C(=O)N[C@H]1c2ccccc2C[C@H]1O [KNI-10006]', 4),
  ('CSCC(NC(=O)COc1cccc2cnccc12)C(=O)NC(Cc1ccccc1)C(O)C(=O)N1CSC(C)(C)C1C(=O)NC(C)(C)C (stereo not shown) [KNI-227]', 50),
  ('Cc1cccc(C)c1OCC(=O)NC(Cc1ccccc1)C(O)C(=O)N1CSC(C)(C)C1C(=O)NC(C)(C)C (stereo not shown) [KNI-727]', 22);

Now turn to the next molecule.
For Cc1ccccc1CNC(=O)[C@H]1N(C(=O)[C@@H](O)[C@H](Cc2ccccc2)NC(=O)COc2c(C)cccc2C)CSC1(C)C [KNI-840] the molecule record lists discrimination factor / Cathepsin D selectivity as 4

###

Listed below: log10(Ki) values for each entry.
target: plasmepsin II from Plasmodium falciparum (Plm II) (Plasmodium falciparum); construct: made in house; host or cells: Escherichia coli; test: Plasmepsin II inhibition assay, hydrolysis of chromogenic substrate; assay type: biochemical; conditions: 25° C., 10 mM sodium formate, 2% DMSO, pH 4.0; fit to competitive inhibition; read-out: Ki Plm II
Heads up, the numbers here are log10 of Ki in nM units.

INSERT INTO measurements (molecule, assay_system, result_value) VALUES
  ('CC[C@H](C)[C@H](NC(=O)COc1cccc2cnccc12)C(=O)N[C@@H](Cc1ccccc1)[C@H](O)C(=O)N1CSC(C)(C)[C@H]1C(=O)NC(C)(C)C', 'plasmepsin II from Plasmodium falciparum (Plm II) (Plasmodium falciparum)', 2.56),
  ('CC(C)[C@H](NC(=O)Cc1ccc2ccccc2c1)C(=O)N[C@@H](Cc1ccccc1)[C@H](O)C(=O)N1CSC(C)(C)[C@H]1C(=O)NC(C)(C)C', 'plasmepsin II from Plasmodium falciparum (Plm II) (Plasmodium falciparum)', 2.93),
  ('CC(C)C(NC(=O)OCc1ccccc1)C(=O)NC(Cc1ccccc1)C(O)C(=O)N1CSC(C)(C)C1C(=O)NC(C)(C)C (stereo not drawn)', 'plasmepsin II from Plasmodium falciparum (Plm II) (Plasmodium falciparum)', 3.18),
  ('Cc1ccccc1CNC(=O)[C@H]1N(C(=O)[C@@H](O)[C@H](Cc2ccccc2)NC(=O)COc2c(C)cccc2C)CSC1(C)C', 'plasmepsin II from Plasmodium falciparum (Plm II) (Plasmodium falciparum)', 1.30),
  ('CC(C)[C@H](NC(=O)c1cc(=O)c2ccccc2o1)C(=O)N[C@@H](Cc1ccccc1)[C@H](O)C(=O)N1CSC(C)(C)[C@H]1C(=O)NC(C)(C)C', 'plasmepsin II from Plasmodium falciparum (Plm II) (Plasmodium falciparum)', 2.39);

Attention now shifts to the item below.
So, CSC[C@H](NC(=O)COc1cccc2cnccc12)C(=O)N[C@@H](Cc1ccccc1)[C@H](O)C(=O)N1CSC[C@H]1C(=O)NC(C)(C)C ? Its log10(Ki) was 3.00
